# test.target: T1, ZFP SBS#409 (synthetic)
# T1 chain: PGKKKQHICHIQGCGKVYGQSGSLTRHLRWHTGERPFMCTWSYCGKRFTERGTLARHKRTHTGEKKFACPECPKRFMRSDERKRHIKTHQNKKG
# experiment.summary: EMSA
# experimental.context: tags: MBP fusion
value.kind: pKd
One number for each entry, as −log10 of the molar value.

*Q* Fill in reported pKd for this entry: GCGGCCGCA (dsDNA) DNA 1: GCGGCCGCA DNA 2: TGCGGCCGC
*A* 7.30
